Target: T1, SNTG1, Q9NSN8
T1 sequence (Q9NSN8 52-150, limits assumed, looked up): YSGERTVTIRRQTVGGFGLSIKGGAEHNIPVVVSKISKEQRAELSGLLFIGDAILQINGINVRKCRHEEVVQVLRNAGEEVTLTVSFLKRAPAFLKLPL
Test: holdup assay
Parameters: key: below the threshold = too weak to quantify, mostly under pKd 3.1 to 4
Conditions: plain residues with an end cap or a label only (N-terminal biotin on a linker: ttds)
measured.attribute: pKd

These solved cases illustrate the format of a correct answer.
binder="FHPLGADSQV [SLC2A1, P11166]" result=3.88
binder="EMDRRPATVV [PLCB4, Q15147]" result="below the threshold"
binder="NDPAWDETNL [ARHGEF7, Q14155;Q14155-1]" result=4.26
binder="QRQARSETLV [HPV59-E6, Q81964]" result=4.17
binder="RPLPRKVSQL [DOCK4, Q8N1I0]" result="below the threshold"
binder="RHTTSTETAV [HPV30-E6, P36809]" result=4.94
binder="KKYVDAETSL [SLC4A7, Q9Y6M7]" result=3.82
binder="EVVHTPETSV [SLC16A3, O15427]" result=4.71

pKd for DKDPHSETAL [TMIGD1, Q6UXZ0] ?
4.1

pKd for RLQRRRETQV [HPV18-E6, P06463] ?
3.93

pKd for PVRVCEETSL [OTULIN, Q96BN8] ?
4.28

pKd for SGSRPSATVV [HPV73-E6, Q82005] ?
3.6

pKd for VDFPPKESSL [ACVR2A, P27037] ?
3.65
